Give pIC50 for every item shown.
- tested.system: Cholinesterase (Equus caballus, UniProt P81908)
- Sequence (P81908 whole entry): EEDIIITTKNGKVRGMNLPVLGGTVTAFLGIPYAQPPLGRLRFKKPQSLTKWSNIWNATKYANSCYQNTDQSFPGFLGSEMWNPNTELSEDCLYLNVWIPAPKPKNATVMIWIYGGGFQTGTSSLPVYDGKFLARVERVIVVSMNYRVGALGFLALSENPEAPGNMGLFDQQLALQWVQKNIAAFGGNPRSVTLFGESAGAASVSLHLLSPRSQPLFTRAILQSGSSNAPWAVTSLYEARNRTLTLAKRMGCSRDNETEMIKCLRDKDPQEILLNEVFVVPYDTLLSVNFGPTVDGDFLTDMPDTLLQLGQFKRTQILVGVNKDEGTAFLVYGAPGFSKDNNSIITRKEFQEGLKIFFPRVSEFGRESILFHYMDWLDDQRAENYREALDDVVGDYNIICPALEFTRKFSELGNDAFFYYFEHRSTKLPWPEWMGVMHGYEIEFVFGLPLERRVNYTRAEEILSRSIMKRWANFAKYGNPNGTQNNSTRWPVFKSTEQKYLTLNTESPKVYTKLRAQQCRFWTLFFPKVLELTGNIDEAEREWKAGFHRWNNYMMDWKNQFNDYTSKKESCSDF
- assay.summary: Inhibition of horse serum BuChE using butyrylthiocholine iodide as substrate preincubated for 20 mins followed by substrate addition and measured every 20 secs for 3 mins by Ellman's method
One number for each entry, as −log10 of the molar value.

COc1cc2c3c(c1OC)-c1ccccc1CC3N(C(=O)c1cc[n+](Cc3ccc(F)cc3)cc1)CC2.[Br-] (racemic): 5.33
COc1cc2c3c(cc4ccccc4c3c1OC)N(C(=O)c1cc[n+](Cc3ccccc3Cl)cc1)CC2: 6.36
COc1cc2c3c(c1OC)-c1ccccc1CC3N(C(=O)c1cc[n+](Cc3cccc(Cl)c3)cc1)CC2 (racemic): 6.02

Q: Specify pIC50 for COc1cc2c3c(c1OC)-c1ccccc1CC3N(C(=O)c1cc[n+](Cc3cccc(F)c3F)cc1)CC2 (racemic) and stop.
Result: 5.81

====

Kindly supply the reported logP values for the records listed here.
- assay.summary: Lipophilicity, log P of the compound in n-octanol/water by HPLC method
- Type: physicochemical
One number for each entry.

COc1cc2c3c(c1OC)-c1ccccc1CC3N(C(=O)c1cc[n+](Cc3ccccc3)cc1)CC2.[Br-] (racemic): 2.2
COc1cc2c3c(c1OC)-c1ccccc1C[C@@H]3N(C(=O)c1cc[n+](Cc3ccccc3Cl)cc1)CC2.[Br-]: 2.36
COc1cc2c3c(c1OC)-c1ccccc1CC3N(C(=O)c1cc[n+](Cc3c(F)cccc3F)cc1)CC2 (racemic): 2.08

API: the following record is the query input.
Q: Please look at this molecule and report its logP: COc1cc2c3c(c1OC)-c1ccccc1CC3N(C(=O)c1cc[n+](Cc3ccc(F)cc3)cc1)CC2.[Br-] (racemic)
Result: 2.3

====

- assay.summary: Selectivity index, ratio of IC50 for horse serum BuChE using butyrylthiocholine iodide as substrate to IC50 for electric eel AChE using acetylthiocholine iodide as substrate
property.measured: Ratio IC50
Answers are plain numbers.

As a guide, the following entries are already answered.
COc1cc2c3c(c1OC)-c1ccccc1C[C@@H]3N(C(=O)c1cc[n+](Cc3ccccc3Cl)cc1)CC2.[Br-]: 30.3
COc1cc2c3c(cc4ccccc4c3c1OC)N(C(=O)c1cc[n+](Cc3ccccc3F)cc1)CC2: 0.1
COc1cc2c3c(cc4ccccc4c3c1OC)N(C(=O)c1cc[n+](Cc3ccccc3Cl)cc1)CC2: 0.3
COc1cc2c3c(c1OC)-c1ccccc1CC3N(C(=O)c1cc[n+](Cc3ccccc3Cl)cc1)CC2.[Br-] (racemic): 3.9

Required: Ratio IC50, one value per molecule below.
1. COc1cc2c3c(c1OC)-c1ccccc1CC3N(C(=O)c1cc[n+](Cc3ccccc3F)cc1)CC2 (racemic)
2. COc1cc2c3c(c1OC)-c1ccccc1C[C@H]3N(C(=O)c1cc[n+](Cc3ccccc3Cl)cc1)CC2.[Br-]
3. COc1cc2c3c(c1OC)-c1ccccc1C[C@H]3N(C(=O)c1cc[n+](Cc3ccccc3)cc1)CC2
4. COc1cc2c3c(c1OC)-c1ccccc1CC3N(C(=O)c1cc[n+](Cc3ccccc3)cc1)CC2.[Br-] (racemic)

Result:
1: 3.3; 2: 0.8; 3: 0.7; 4: 3.8

====

- tested.system: Cholinesterase (Equus caballus, UniProt P81908)
- assay.summary: Inhibition of horse serum BuChE using butyrylthiocholine iodide as substrate preincubated for 20 mins followed by substrate addition and measured every 20 secs for 3 mins by Ellman's method
Field 'label' (enum: condition met / condition not met). Set to condition met when IC50 is strictly under 1 µM; else condition not met.

Q: For this compound, is IC50 lower than 1 µM? COc1cc2c3c(c1OC)-c1ccccc1C[C@H]3N(C(=O)c1cc[n+](Cc3ccccc3)cc1)CC2
Result: condition not met

Q: IC50 strictly < 1 µM for this compound? COc1cc2c3c(c1OC)-c1ccccc1CC3N(C(=O)c1cc[n+](Cc3ccccc3Cl)cc1)CC2.[Br-] (racemic)
Result: condition met

Q: IC50 strictly < 1 µM for this compound? COc1cc2c3c(c1OC)-c1ccccc1CC3N(C(=O)c1cc[n+](Cc3ccccc3F)cc1)CC2 (racemic)
Result: condition not met

Q: Does the reported IC50 of the following compound sit strictly below 1 µM? COc1cc2c3c(c1OC)-c1ccccc1CC3N(C(=O)c1cc[n+](Cc3ccccc3)cc1)CC2.[Br-] (racemic)
Result: condition not met

Q: Field: below-cutoff. Rule: recorded IC50 strictly less than 1 µM. Subject: COc1cc2c3c(c1OC)-c1ccccc1CC3N(C(=O)c1cc[n+](Cc3cccc(F)c3)cc1)CC2 (racemic)
Result: condition not met

Q: Does this compound meet the criterion IC50 < 1 µM? COc1cc2c3c(cc4ccccc4c3c1OC)N(C(=O)c1cc[n+](Cc3ccccc3F)cc1)CC2
Result: condition met

Q: Lab note: confirm whether the reported IC50 for this compound is below 1 µM, equality not counting. compound: COc1cc2c3c(c1OC)-c1ccccc1C[C@H]3N(C(=O)c1cc[n+](Cc3ccccc3Cl)cc1)CC2.[Br-]
Result: condition not met

Q: Lab note: IC50 threshold 1 µM. Does this compound come in strictly under it? COc1cc2c3c(c1OC)-c1ccccc1C[C@@H]3N(C(=O)c1cc[n+](Cc3ccccc3Cl)cc1)CC2.[Br-]
Result: condition not met

====

Assign Ratio IC50 to each entry below.
- assay.summary: Selectivity index, ratio of IC50 for horse serum BuChE using butyrylthiocholine iodide as substrate to IC50 for electric eel AChE using acetylthiocholine iodide as substrate
One number for each entry.

COc1cc2c3c(c1OC)-c1ccccc1C[C@@H]3N(C(=O)c1cc[n+](Cc3ccc(F)cc3)cc1)CC2: 23.2

Report Ratio IC50 for every entry below.
1. COc1cc2c3c(c1OC)-c1ccccc1C[C@H]3N(C(=O)c1cc[n+](Cc3ccc(F)cc3)cc1)CC2
2. COc1cc2c3c(c1OC)-c1ccccc1C[C@@H]3N(C(=O)c1cc[n+](Cc3ccccc3)cc1)CC2
3. COc1cc2c3c(c1OC)-c1ccccc1CC3N(C(=O)c1cc[n+](Cc3c(F)cccc3F)cc1)CC2 (racemic)
4. COc1cc2c3c(c1OC)-c1ccccc1CC3N(C(=O)c1cc[n+](Cc3cccc(F)c3)cc1)CC2 (racemic)
5. COc1cc2c3c(c1OC)-c1ccccc1CC3N(C(=O)c1cc[n+](Cc3cccc(Cl)c3)cc1)CC2 (racemic)
6. COc1cc2c3c(c1OC)-c1ccccc1CC3N(C(=O)c1cc[n+](Cc3ccc(F)cc3)cc1)CC2.[Br-] (racemic)
7. COc1cc2c3c(c1OC)-c1ccccc1CC3N(C(=O)c1cc[n+](Cc3cccc(F)c3F)cc1)CC2 (racemic)

Result:
1.3
40.8
1.2
3
0.5
7
2

====

- tested.system: Acetylcholinesterase (Electrophorus electricus, UniProt O42275)
- Sequence (O42275 whole entry): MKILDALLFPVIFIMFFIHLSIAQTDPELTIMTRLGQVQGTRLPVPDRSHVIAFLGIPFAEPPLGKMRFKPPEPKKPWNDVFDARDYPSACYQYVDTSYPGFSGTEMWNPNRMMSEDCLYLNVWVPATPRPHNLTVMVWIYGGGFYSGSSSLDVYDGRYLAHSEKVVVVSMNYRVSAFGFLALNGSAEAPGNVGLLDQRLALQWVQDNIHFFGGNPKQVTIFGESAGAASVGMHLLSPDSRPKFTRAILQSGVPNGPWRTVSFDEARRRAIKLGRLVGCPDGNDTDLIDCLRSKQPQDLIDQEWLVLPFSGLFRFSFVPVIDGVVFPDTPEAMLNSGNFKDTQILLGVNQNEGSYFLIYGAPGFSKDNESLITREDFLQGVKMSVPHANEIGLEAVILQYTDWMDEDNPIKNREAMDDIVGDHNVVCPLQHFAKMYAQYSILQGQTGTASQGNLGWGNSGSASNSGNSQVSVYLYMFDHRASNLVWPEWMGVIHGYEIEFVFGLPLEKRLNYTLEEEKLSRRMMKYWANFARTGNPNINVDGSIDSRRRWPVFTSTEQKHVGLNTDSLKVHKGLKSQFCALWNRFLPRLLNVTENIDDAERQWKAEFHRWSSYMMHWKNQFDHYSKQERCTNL
pIC50: −log10 of the molar value.
The label depends only on pIC50: Y if it is at least 6, N if it is smaller.

COc1cc2c3c(c1OC)-c1ccccc1CC3N(C(=O)c1cc[n+](Cc3ccccc3F)cc1)CC2 (racemic): Y
COc1cc2c3c(cc4ccccc4c3c1OC)N(C(=O)c1cc[n+](Cc3ccccc3Cl)cc1)CC2: N
COc1cc2c3c(c1OC)-c1ccccc1CC3N(C(=O)c1cc[n+](Cc3cccc(F)c3)cc1)CC2 (racemic): Y
COc1cc2c3c(c1OC)-c1ccccc1CC3N(C(=O)c1cc[n+](Cc3cccc(Cl)c3)cc1)CC2 (racemic): N
COc1cc2c3c(c1OC)-c1ccccc1C[C@H]3N(C(=O)c1cc[n+](Cc3ccccc3)cc1)CC2: N

Q: Textbook exercise: given the entry COc1cc2c3c(c1OC)-c1ccccc1CC3N(C(=O)c1cc[n+](Cc3ccccc3Cl)cc1)CC2.[Br-] (racemic) , state whether its pIC50 is greater than or equal to 6.
Result: Y

Q: pIC50 >= 6 for COc1cc2c3c(c1OC)-c1ccccc1C[C@H]3N(C(=O)c1cc[n+](Cc3ccccc3Cl)cc1)CC2.[Br-] ?
Result: N

Q: State whether the measured pIC50 reaches 6, counting equality as reaching it, for COc1cc2c3c(c1OC)-c1ccccc1C[C@@H]3N(C(=O)c1cc[n+](Cc3ccccc3Cl)cc1)CC2.[Br-]
Result: Y
